Target: PKC-γ (Homo sapiens)
Test: Protein Kinase C Histone-Based Assay, isozyme γ
Conditions: read-out: PKC-γ % inhibition
MEASUREMENT KIND: inhibition at 1 µM (%)

These solved cases illustrate the format of a correct answer.
CHEMICAL STRING	inhibition at 1 µM, %
CN(C)CCCn1cc(C2=C(c3cccc4ccccc34)C(=O)NC2=O)c2cccnc21	48
O=C1NC(=O)C(c2cn(CCCO)c3ncccc23)=C1c1ccccc1Cl	48
O=C1NC(=O)C(c2cn(CCCO)c3ncccc23)=C1c1csc2ccc(Cl)cc12	44

1. O=C1NC(=O)C(c2cn(CCCO)c3ncccc23)=C1c1cccc2ccccc12
2. CN(C)CCCn1cc(C2=C(c3ccccc3Cl)C(=O)NC2=O)c2cccnc21
### Prompt From the items above, decide which of 1 and 2 has the lower inhibition at 1 µM reading. Could you answer with the label of the item you picked?
### Response 1

---

Target: PKC-βII (Homo sapiens, UniProt P05771)
Sequence (P05771 1-673 isoform P05771-2): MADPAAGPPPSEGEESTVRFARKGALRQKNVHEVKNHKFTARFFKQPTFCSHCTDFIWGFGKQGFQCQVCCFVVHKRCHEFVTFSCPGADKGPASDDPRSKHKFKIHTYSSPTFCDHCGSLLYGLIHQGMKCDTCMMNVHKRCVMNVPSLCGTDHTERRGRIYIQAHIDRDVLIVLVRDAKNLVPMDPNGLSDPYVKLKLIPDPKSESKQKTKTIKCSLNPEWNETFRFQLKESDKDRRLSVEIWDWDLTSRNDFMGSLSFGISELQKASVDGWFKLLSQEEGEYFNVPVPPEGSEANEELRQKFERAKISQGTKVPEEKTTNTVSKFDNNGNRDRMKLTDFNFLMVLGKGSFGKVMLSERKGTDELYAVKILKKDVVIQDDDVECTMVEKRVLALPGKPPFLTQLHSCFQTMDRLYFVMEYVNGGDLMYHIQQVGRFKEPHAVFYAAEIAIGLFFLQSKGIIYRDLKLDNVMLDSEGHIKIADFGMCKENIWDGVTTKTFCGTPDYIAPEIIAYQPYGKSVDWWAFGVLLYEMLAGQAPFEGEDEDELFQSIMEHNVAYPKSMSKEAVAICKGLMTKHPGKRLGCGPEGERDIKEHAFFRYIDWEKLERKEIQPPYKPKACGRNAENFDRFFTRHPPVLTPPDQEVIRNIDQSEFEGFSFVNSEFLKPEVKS
Assay: Protein Kinase C Histone-Based Assay, isozyme β-II
Type: biochemical
Settings: @10 μM
MEASUREMENT KIND: inhibition at 10 µM (%)

These solved cases illustrate the format of a correct answer.
CHEMICAL STRING	inhibition at 10 µM (%)
O=C1NC(=O)C(c2cn(CCCO)c3ncccc23)=C1c1ccccc1Cl	81
CN(C)CCCn1cc(C2=C(c3cccc4ccccc34)C(=O)NC2=O)c2cccnc21	84
O=C1NC(=O)C(c2cn(CCCO)c3ncccc23)=C1c1cccc2ccccc12	89

P. O=C1NC(=O)C(c2cn(CCCO)c3ncccc23)=C1c1csc2ccc(Cl)cc12
Q. CN(C)CCCn1cc(C2=C(c3ccccc3Cl)C(=O)NC2=O)c2cccnc21
### Prompt Sort P and Q by inhibition at 10 µM descending and give the first. Could you answer with the label of the item you picked?
### Response P
(P: 81%, Q: 50%)

---

Molecular target: PKC-α (Homo sapiens)
Test: Protein Kinase C Histone-Based Assay, isozyme α
Conditions: read-out: PKC-α % inhibition
MEASUREMENT KIND: inhibition at 10 µM (%)

These solved cases illustrate the format of a correct answer.
CHEMICAL STRING	UNITS LABEL	READING
CN(C)CCCn1cc(C2=C(c3cccc4ccccc34)C(=O)NC2=O)c2cccnc21	%	34
COc1ccccc1C1=C(c2cn(CCCNC=O)c3ncccc23)C(=O)NC1=O	%	33
COC(=O)NCCCn1cc(C2=C(c3ccccc3OC)C(=O)NC2=O)c2cccnc21	%	31
O=C1NC(=O)C(c2cn(CCCO)c3ncccc23)=C1c1ccccc1Cl	%	2
COc1ccccc1C1=C(c2cn(CCCNC(C)=O)c3ncccc23)C(=O)NC1=O	%	26

1. O=C1NC(=O)C(c2cn(CCCO)c3ncccc23)=C1c1csc2ccc(Cl)cc12
2. CN(C)CCCn1cc(C2=C(c3ccccc3Cl)C(=O)NC2=O)c2cccnc21
3. O=C1NC(=O)C(c2cn(CCCO)c3ncccc23)=C1c1cccc2ccccc12
### Prompt Put the items in sequence by inhibition at 10 µM, from largest down. Give the labels in the order requested.
### Response 3, 1, 2
(3: 51%, 1: 34%, 2: 1%)

---

Biological target: PKC-βII (Homo sapiens)
Experiment: Protein Kinase C Histone-Based Assay, isozyme β-II
Assay type: biochemical
Conditions: @1 μM
MEASUREMENT KIND: inhibition at 1 µM (%)

These solved cases illustrate the format of a correct answer.
CHEMICAL STRING	ASSAY TARGET	inhibition at 1 µM, %
O=C1NC(=O)C(c2cn(CCCO)c3ncccc23)=C1c1cccc2ccccc12	PKC-βII (Homo sapiens)	30
O=C1NC(=O)C(c2cn(CCCO)c3ncccc23)=C1c1csc2ccc(Cl)cc12	PKC-βII (Homo sapiens)	21
CN(C)CCCn1cc(C2=C(c3ccccc3Cl)C(=O)NC2=O)c2cccnc21	PKC-βII (Homo sapiens)	22
CN(C)CCCn1cc(C2=C(c3cccc4ccccc34)C(=O)NC2=O)c2cccnc21	PKC-βII (Homo sapiens)	47
COC(=O)NCCCn1cc(C2=C(c3ccccc3OC)C(=O)NC2=O)c2cccnc21	PKC-βII (Homo sapiens)	35

1. COc1ccccc1C1=C(c2cn(CCCNC(C)=O)c3ncccc23)C(=O)NC1=O
2. COc1ccccc1C1=C(c2cn(CCCNC=O)c3ncccc23)C(=O)NC1=O
### Prompt From the items above, decide which of 1 and 2 has the lower inhibition at 1 µM reading. Could you answer with the label of the item you picked?
### Response 2

---

Molecular target: PKC-α (Homo sapiens)
Test: Protein Kinase C Histone-Based Assay, isozyme α
Conditions: read-out: PKC-α % inhibition
MEASUREMENT KIND: inhibition at 1 µM (%)

MOLECULE	MEASUREMENT KIND	READING
CN(C)CCCn1cc(C2=C(c3ccccc3Cl)C(=O)NC2=O)c2cccnc21 [Cpd 2]	inhibition at 1 µM	0

I. O=C1NC(=O)C(c2cn(CCCO)c3ncccc23)=C1c1cccc2ccccc12 [Cpd 3]
II. O=C1NC(=O)C(c2cn(CCCO)c3ncccc23)=C1c1ccccc1Cl [Cpd 1]
### Prompt Sort I and II by inhibition at 1 µM descending and give the first. Could you answer with the label of the item you picked?
### Response II
(II: 18%, I: 0%)

---

Molecular target: recombinant rabbit GSK-3β protein (Oryctolagus cuniculus)
Assay: Glycogen Synthase Kinase-3 Assay (33P phosphorylation of PPI-2)
Conditions: two numbers = data obtained on different days
pIC50: −log10 of the molar value.
MEASUREMENT KIND: pIC50

CHEMICAL STRING	ASSAY TARGET	pIC50
COc1ncc(C2=C(c3cn(CCOc4ccc(F)cc4)c4ncccc34)C(=O)NC2=O)c(OC)n1	recombinant rabbit GSK-3β protein (Oryctolagus cuniculus)	6.62
COCCn1cc(C2=C(c3cnc(OC)nc3OC)C(=O)NC2=O)c2cccnc21	recombinant rabbit GSK-3β protein (Oryctolagus cuniculus)	6.44
O=C1NC(=O)C(c2cn(CCCO)c3ncccc23)=C1c1cc(Cl)sc1Cl	recombinant rabbit GSK-3β protein (Oryctolagus cuniculus)	8.22
COc1cccc(C2=C(c3cn(CCCO)c4ncccc34)C(=O)NC2=O)c1	recombinant rabbit GSK-3β protein (Oryctolagus cuniculus)	7.96
Cn1ccc(C2=C(c3cn(CCC#N)c4ncccc34)C(=O)NC2=O)n1	recombinant rabbit GSK-3β protein (Oryctolagus cuniculus)	7.00
CCn1cc(C2=C(c3cn(CCCO)c4ncccc34)C(=O)NC2=O)c2cccnc21	recombinant rabbit GSK-3β protein (Oryctolagus cuniculus)	7.29
O=C1NC(=O)C(c2cn(CCCO)c3ncccc23)=C1/C=C/c1ccc(F)cc1	recombinant rabbit GSK-3β protein (Oryctolagus cuniculus)	6.48
O=C1NC(=O)C(c2cn(CCCO)c3ncccc23)=C1c1ccn(CCCO)n1	recombinant rabbit GSK-3β protein (Oryctolagus cuniculus)	7.00
O=C1NC(=O)C(c2cn(CCCO)c3ncccc23)=C1c1cccs1	recombinant rabbit GSK-3β protein (Oryctolagus cuniculus)	8.22
CCCCC1=C(c2cn(CCCO)c3ncccc23)C(=O)NC1=O	recombinant rabbit GSK-3β protein (Oryctolagus cuniculus)	6.42

I. O=C1NC(=O)C(c2cn(CCCO)c3ncccc23)=C1c1ncc(C(F)(F)F)cc1Cl
II. COc1ccccc1C1=C(c2cn(CCCO)c3ncccc23)C(=O)NC1=O
III. CN(C)CCCn1cc(C2=C(c3ccccc3Cl)C(=O)NC2=O)c2cccnc21
### Prompt Hey, can you sort those molecules up there by pIC50, smallest first? Give the labels in the order requested.
### Response I, III, II
(I: 7.44, III: 7.72, II: 8.52)

1. COc1ncc(C2=C(c3cn(CCc4ccccc4)c4ncccc34)C(=O)NC2=O)c(OC)n1
2. O=C1NC(=O)C(c2cn(CCCO)c3ncccc23)=C1c1ccc(F)cc1Cl
### Prompt From the items above, decide which of 1 and 2 has the lower pIC50 reading. Could you answer with the label of the item you picked?
### Response 1
(1: 7.00, 2: 8.00)

a. O=C1NC(=O)C(c2cn(CCCO)c3ncccc23)=C1c1ccccc1C(F)(F)F
b. O=C1NC(=O)C(c2cn(CCCc3ccccc3)c3ncccc23)=C1c1cnccn1
### Prompt From the items above, decide which of a and b has the lower pIC50 reading. Could you answer with the label of the item you picked?
### Response b
(b: 6.20, a: 8.40)

---

Biological target: recombinant rabbit GSK-3β protein (Oryctolagus cuniculus, UniProt G1T8E2)
Construct: purchased New England Biolabs
Sequence (G1T8E2 1-432): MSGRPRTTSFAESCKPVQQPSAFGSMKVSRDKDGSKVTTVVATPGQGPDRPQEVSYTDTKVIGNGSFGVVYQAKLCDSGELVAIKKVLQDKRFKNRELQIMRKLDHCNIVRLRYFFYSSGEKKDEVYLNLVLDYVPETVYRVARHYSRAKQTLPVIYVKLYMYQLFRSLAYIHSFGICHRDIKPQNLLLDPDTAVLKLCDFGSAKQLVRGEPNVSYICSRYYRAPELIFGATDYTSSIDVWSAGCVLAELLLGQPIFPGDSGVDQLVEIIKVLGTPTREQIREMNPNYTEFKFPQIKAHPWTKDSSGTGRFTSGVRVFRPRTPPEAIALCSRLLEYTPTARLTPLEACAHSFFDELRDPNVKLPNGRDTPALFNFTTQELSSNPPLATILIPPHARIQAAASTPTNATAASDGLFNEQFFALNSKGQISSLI
Assay: Glycogen Synthase Kinase-3 Assay (33P phosphorylation of PPI-2)
Format: biochemical
Conditions: @1 μM; two numbers = different days
MEASUREMENT KIND: inhibition at 1 µM (%)

These solved cases illustrate the format of a correct answer.
COMPOUND	READING
O=C1NC(=O)C(c2cn(CCCO)c3ncccc23)=C1c1c[nH]c(=O)[nH]c1=O [Cpd 68]	43
Cc1noc(C)c1C1=C(c2cn(CCCO)c3ncccc23)C(=O)NC1=O [Cpd 44]	32
COc1ncc(C2=C(c3cn(Cc4ccccc4)c4ncccc34)C(=O)NC2=O)c(OC)n1 [Cpd 72]	54
CN(C)CCCn1nc(C2=C(c3cn(-c4ccc5ccccc5c4)c4ncccc34)C(=O)NC2=O)c2ccccc21 [Cpd 20]	21
COc1ncc(C2=C(c3cn(CCCc4cccs4)c4ncccc34)C(=O)NC2=O)c(OC)n1 [Cpd 74]	39

a. O=C1NC(=O)C(c2nn(CCCO)c3ccccc23)=C1c1cn(-c2ccc3ccccc3c2)c2ncccc12 [Cpd 21]
b. O=C1NC(=O)C(c2cn(CCCO)c3ncccc23)=C1c1ncccn1 [Cpd 56]
### Prompt From the items above, decide which of a and b has the lower inhibition at 1 µM reading. Could you answer with the label of the item you picked?
### Response b

Cited source: patent US7125878B2
